target-desc: Cytochrome P450 1A2 (Homo sapiens)
experiment-notes: Cytochrome P450 Family 1 Subfamily A Member 2 (CYP1A2) small molecule antagonists: luciferase reporter qHTS assay (AID 1671199); further: nearly all actives have a fitted effect of over 50% in size; further: potency means the concentration at half of the fitted maximal effect
condition-details: P450-Glo CYP1A2 enzyme, luciferin luminescence, 1 h; series mostly up to 115 µM
Records with an inconclusive call do not appear. Calls of active or inactive are those of the source. The call rests on the fitted dose curve; in most records, active means well fitted inhibition curve with a large enough effect in the repeat runs; inconclusive means weak or mixed curves; inactive means no such curve, though single readings can be large or run the other way.
parameter-measured: Potency

[[record]]
molecule = "CC[C@H](C)[C@H]1O[C@]2(C=C[C@@H]1C)C[C@@H]1C[C@@H](C/C=C(\\C)[C@@H](O[C@H]3C[C@H](OC)[C@@H](O[C@H]4C[C@H](OC)[C@@H](NC)[C@H](C)O4)[C@H](C)O3)[C@@H](C)/C=C/C=C3\\CO[C@@H]4[C@H](O)C(C)=C[C@@H](C(=O)O1)[C@]34O)O2"
parameter_measured = "Potency"
readout_value = "35.6 µM (active)"

[[record]]
molecule = "ClC1(Cl)C2(Cl)C3(Cl)C4(Cl)C(Cl)(Cl)C5(Cl)C3(Cl)C1(Cl)C5(Cl)C24Cl (centres undefined)"
parameter_measured = "Potency"
readout_value = "inactive"

[[record]]
molecule = "CCNc1nc(NC(C)C(C)C)nc(SC)n1 (centres undefined)"
parameter_measured = "Potency"
readout_value = "25.2 µM (active)"

[[record]]
molecule = "COc1ccc2c(c1OC)C(=O)O[C@@H]2[C@H]1c2cc3c(cc2CCN1C)OCO3"
parameter_measured = "Potency"
readout_value = "31.4 µM (active)"

[[record]]
molecule = "Nc1ccc(N=Nc2ccccc2)cc1"
parameter_measured = "Potency"
readout_value = "4.61 µM (active)"

[[record]]
molecule = "N#Cc1ccc(N(CC(N)=O)CC(F)(F)F)cc1C(F)(F)F"
parameter_measured = "Potency"
readout_value = "39.9 µM (active)"

[[record]]
molecule = "[O-][Cl+3]([O-])([O-])O"
parameter_measured = "Potency"
readout_value = "inactive"

[[record]]
molecule = "CN(C)c1ccc(N)cc1"
parameter_measured = "Potency"
readout_value = "12.3 µM (active)"

[[record]]
molecule = "C[C@]12CC[C@H]3[C@@H](CCC4=CC(=O)CC[C@@H]43)[C@@H]1CC[C@@H]2OC(=O)CCc1ccco1"
parameter_measured = "Potency"
readout_value = "inactive"

[[record]]
molecule = "CC(=O)C(Cl)C(=O)N(C)C (centres undefined)"
parameter_measured = "Potency"
readout_value = "inactive"


Asked: Answer with the recorded Potency of CC(C)(C)c1ccc(OP(=O)(Oc2ccccc2)Oc2ccccc2)cc1 only.
Given back: 16 µM (active)

Asked: Answer with the recorded Potency of N#CC(C#N)=NNc1cccc(Cl)c1 only.
Given back: 8.94 µM (active)

Asked: Answer with the recorded Potency of Cc1ccc2cc3c(ccc4ccccc43)c3c2c1CC3 only.
Given back: 0.449 µM (active)

Asked: Answer with the recorded Potency of S=C=NCCc1ccccc1 only.
Given back: 10.1 µM (active)

Asked: Answer with the recorded Potency of CNC(=O)/C=C(\C)OP(=O)(OC)OC only.
Given back: 28.3 µM (active)

====

experiment-notes: qHTS assay for small molecules that induce genotoxicity in human embryonic kidney cells expressing luciferase-tagged ATAD5 (AID 651632); further: nearly all actives have a fitted effect of over 15% in size
condition-details: HEK293T ATAD5-luciferase induction, 16 h; series mostly up to 83.3 µM
Inconclusive results are not listed. Calls of active or inactive are those of the source. The call rests on the fitted dose curve; in most records, active means well fitted activation curve with a large enough effect in the repeat runs; inconclusive means weak or mixed curves; inactive means no such curve, though single readings can be large or run the other way.
parameter-measured: activation

Worked examples follow.
[[record]]
molecule = "CCN(CC)CCc1c[nH]c2ccccc12"
readout_value = "inactive"

[[record]]
molecule = "COc1nc(C)nc(NC(=O)NS(=O)(=O)c2ccccc2Cl)n1"
readout_value = "inactive"

[[record]]
molecule = "CC1(C)C(C=C(Cl)Cl)C1C(=O)OC(C#N)c1ccc(F)c(Oc2ccccc2)c1 (stereo not drawn)"
readout_value = "inactive"

[[record]]
molecule = "CCC1COC(Cn2cncn2)(c2ccc(Cl)cc2Cl)O1 (stereo not drawn)"
readout_value = "inactive"

[[record]]
molecule = "CNC(=O)O/N=C(\\C)C(C)S(C)(=O)=O (stereo not drawn)"
readout_value = "inactive"


Shift focus to the following entry.
Asked: Answer with the recorded activation of CCOC(=O)Cc1ccccc1 only.
Given back: inactive

====

experiment-notes: qHTS assay to identify small molecule agonists of the AP-1 signaling pathway - cell viability counter screen (AID 1159525); further: nearly all actives have a fitted effect of over 55% in size
condition-details: ME-180 (cervical carcinoma) AP-1-bla cells viability, ATP luminescence, 5 h; series mostly up to 76.8 µM
Inconclusive results are not listed. Calls of active or inactive are those of the source. The call rests on the fitted dose curve.
Write down the outcome that applies. Available outcomes: Y for active, N for inactive

Consider the following illustrative entries.
[[record]]
molecule = "C[C@]12CC[C@H]3[C@@H](CCC4=CC(=O)CC[C@@H]43)[C@@H]1CC[C@@H]2OC(=O)CCc1ccco1"
assigned_class = "N"

[[record]]
molecule = "ClC1=C(Cl)[C@]2(Cl)[C@@H]3[C@H]4C[C@H]([C@@H]5O[C@H]45)[C@@H]3[C@@]1(Cl)C2(Cl)Cl"
assigned_class = "N"

[[record]]
molecule = "CCOP(=O)(Sc1ccccc1)Sc1ccccc1"
assigned_class = "N"


Asked: Please state the recorded outcome for this molecule: CNC(=O)O/N=C(\C)C(C)S(C)(=O)=O (stereo unspecified)
Given back: N

Asked: Please state the recorded outcome for this molecule: C=CC(=C)C
Given back: N

Asked: Please state the recorded outcome for this molecule: Nc1ccc(Cl)cc1C(=O)c1ccccc1F
Given back: N

Asked: Please state the recorded outcome for this molecule: Cc1cccc(Cc2cnc[nH]2)c1C
Given back: N

Asked: Please state the recorded outcome for this molecule: [F][Sn]([c]1ccccc1)([c]1ccccc1)[c]1ccccc1
Given back: Y

Asked: Please state the recorded outcome for this molecule: CC(C)c1c(CN(C)C(C)Cc2ccccc2)n(C)n(-c2ccccc2)c1=O (stereo unspecified)
Given back: N

Asked: Please state the recorded outcome for this molecule: S=C=NCCc1ccccc1
Given back: N

Asked: Please state the recorded outcome for this molecule: O.O.O.O.O.O.O=S(=O)([O-])[O-].[Ni+2]
Given back: N

====

target-desc: Cytochrome P450 2D6 (Homo sapiens) (UniProt P10635)
Sequence (P10635 whole entry, looked up): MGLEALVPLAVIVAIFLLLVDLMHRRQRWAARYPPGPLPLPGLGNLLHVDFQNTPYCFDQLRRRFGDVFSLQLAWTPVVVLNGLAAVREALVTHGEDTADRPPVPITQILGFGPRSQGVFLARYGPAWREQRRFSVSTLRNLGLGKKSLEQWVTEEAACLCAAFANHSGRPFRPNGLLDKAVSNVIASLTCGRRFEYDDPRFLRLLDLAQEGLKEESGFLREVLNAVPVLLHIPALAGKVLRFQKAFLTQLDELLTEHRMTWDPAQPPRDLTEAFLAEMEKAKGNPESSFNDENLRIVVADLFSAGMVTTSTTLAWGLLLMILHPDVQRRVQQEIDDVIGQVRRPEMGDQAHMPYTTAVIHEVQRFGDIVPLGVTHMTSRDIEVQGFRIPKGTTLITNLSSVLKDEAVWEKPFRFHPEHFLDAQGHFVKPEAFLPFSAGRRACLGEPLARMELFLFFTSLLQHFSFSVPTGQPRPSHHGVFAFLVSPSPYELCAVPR
experiment-notes: Cytochrome P450 Family 2 Subfamily D Member 6 (CYP2D6) small molecule antagonists: luciferase reporter qHTS assay (AID 1671196); further: nearly all actives have a fitted effect of over 50% in size
condition-details: P450-Glo CYP2D6 enzyme assay, luciferin luminescence, 1 h; series mostly up to 115 µM
Inconclusive results are not listed. The source made the active and inactive calls. Calls come from the whole dose curve; as a rule, active = well fitted inhibition curve with a large enough effect in the repeat runs; inconclusive = weak or mixed curves; inactive = no such curve, though single readings can be large or run the other way.
Write down the outcome that applies. Available outcomes: active, inactive

[[record]]
molecule = "Cc1c([N+](=O)[O-])c(C)c([N+](=O)[O-])c(C(C)(C)C)c1[N+](=O)[O-]"
assigned_class = "inactive"

[[record]]
molecule = "CC1CCCC1"
assigned_class = "inactive"

[[record]]
molecule = "CN1C(=O)[C@@H](NC(=O)c2cc3ccccc3[nH]2)N=C(c2ccccc2)c2ccccc21"
assigned_class = "inactive"

[[record]]
molecule = "O=[N+]([O-])C(Br)Br"
assigned_class = "inactive"

[[record]]
molecule = "CC(Cc1ccc(O)cc1)NCC(O)c1cc(O)cc(O)c1 (stereo unspecified)"
assigned_class = "active"

[[record]]
molecule = "O=C(N[C@H]1N=C(c2ccccc2F)c2cccc3c2N(CC3)C1=O)c1cc2ccccc2[nH]1"
assigned_class = "inactive"

[[record]]
molecule = "N#Cc1c[nH]cc1-c1cccc2c1OC(F)(F)O2"
assigned_class = "inactive"

[[record]]
molecule = "CCn1cc[n+](C)c1 (tested in a mixture with another compound)"
assigned_class = "inactive"


Asked: Please state the recorded outcome for this molecule: [F][Sn]([c]1ccccc1)([c]1ccccc1)[c]1ccccc1
Given back: active

Asked: Please state the recorded outcome for this molecule: COC(=O)N(OC)c1ccccc1COc1ccn(-c2ccc(Cl)cc2)n1
Given back: active

Asked: Please state the recorded outcome for this molecule: COc1c2c(cc3c1OCO3)CCN(C)C2
Given back: active

====

experiment-notes: qHTS assay for identifying genotoxic compounds that show differential cytotoxicity against isogenic chicken DT40 cell lines with known DNA damage response pathways - wild type cell line (AID 743012); further: nearly all actives have a fitted effect of over 60% in size
condition-details: DT40 wild type chicken cells viability, CellTiter-Glo, 40 h; series mostly up to 68.4 µM
Inconclusive results are not listed. Activity calls are given as the source filed them. Calls follow the shape of the dose curve; as a rule, active = well fitted cell-killing curve with a large enough effect in the repeat runs; inconclusive = weak or mixed curves, or effect the other way; inactive = no such curve, though single readings can be large or run the other way.
Write down the outcome that applies. Available outcomes: y = active, n = inactive

Consider the following illustrative entries.
[[record]]
molecule = "CC(Cc1ccc(OCC(=O)O)cc1)NCC(O)c1csc(C(F)(F)F)n1 (centres undefined)"
assigned_class = "n"

[[record]]
molecule = "COC(=O)c1ccccc1S(=O)(=O)NC(=O)Nc1nc(C)nc(OC)n1"
assigned_class = "n"

[[record]]
molecule = "Cc1cnc2c(C(=O)O)c(Cl)ccc2c1"
assigned_class = "n"

[[record]]
molecule = "Fc1ccc(C(OCCN2CCN(CCCc3ccccc3)CC2)c2ccc(F)cc2)cc1"
assigned_class = "y"

[[record]]
molecule = "C#CCO"
assigned_class = "n"

[[record]]
molecule = "Oc1cccc(Cl)c1Cl"
assigned_class = "n"

[[record]]
molecule = "Cc1ccn2nc(S(=O)(=O)Nc3c(F)cccc3F)nc2n1"
assigned_class = "n"

[[record]]
molecule = "CC1CCCC1"
assigned_class = "n"


Read the next record carefully.
Asked: Please state the recorded outcome for this molecule: COP(=O)(OC)O/C(=C\Cl)c1cc(Cl)c(Cl)cc1Cl
Given back: y

Source of measurements: PubChem BioAssay (Tox21)
